System: CP305
Assay: qHTS profiling for inhibitors of Plasmodium falciparum proliferation (AID 504749); note: nearly all actives have a fitted effect of over 60% in size
Settings: P. falciparum in erythrocytes, SYBR Green DNA, 72 h; series mostly up to 28.7 µM
Inconclusive results are not listed. Calls of active or inactive are those of the source. Calls come from the whole dose curve; as a rule, active = well fitted inhibition curve with a large enough effect; inconclusive = small, poorly fitted or top-dose-only effect; inactive = flat fitted curve, though single readings scatter.
Possible outcomes: active, inactive

CC[C@@]1(O)C(=O)OCc2c1cc1n(c2=O)Cc2cc3c([N+](=O)[O-])cccc3nc2-1 = active
CC(C)=O = inactive
CCCCC(C)(O)C/C=C/[C@H]1[C@H](O)CC(=O)[C@@H]1CCCCCCC(=O)OC (stereo not given in full) = inactive
CC1(C)S[C@@H]2[C@H](NC(=O)[C@@H](NC(=O)N3CCNC3=O)c3ccccc3)C(=O)N2[C@H]1C(=O)O = inactive
COC(=O)C1=C(C#N)NC(C)=C(C(=O)OC(C)C)C1c1cccc([N+](=O)[O-])c1 (stereo not given) = active
CCCCCCCCCCCCCCCC(=O)OCC(COC(=O)CCCCCCCCCCCCCCC)OC(=O)CCCCCCCCCCCCCCC = inactive
CC[N+](C)(C)Cc1ccccc1Br = inactive
CC1=C(/C=C/C(C)=C/C=C/C(C)=C/CO)C(C)(C)CCC1 = inactive
CCCC(=O)Nc1ncnc2c1ncn2C1OC2COP(=O)(O)OC2C1OC(=O)CCC (stereo not given) = inactive
CCCC(=O)O[C@]1(C(=O)CCl)[C@H](C)C[C@@H]2[C@H]3CCC4=CC(=O)C=C[C@]4(C)[C@@]3(F)C(=O)C[C@@]21C = active
O=C(O)CN(CCN(CC(=O)O)CC(=O)O)CC(=O)O = inactive
CCOc1ccc2c(c1)C(C)=CC(C)(C)N2 = inactive
O=C(COc1ccc(Cl)cc1)OCCNC12CC3CC(CC(C3)C1)C2 = inactive
CC(=O)Oc1c(C)cc(OCC(O)CNC(C)C)c(C)c1C (stereo not given) = inactive
COC(C(=O)C(O)C(C)O)C1Cc2cc3cc(OC4CC(OC5CC(O)C(O)C(C)O5)C(O)C(C)O4)c(C)c(O)c3c(O)c2C(=O)C1OC1CC(OC2CC(OC3CC(C)(O)C(O)C(C)O3)C(O)C(C)O2)C(O)C(C)O1 (stereo not given) = active
Cc1c(C)c2c(c(C)c1O)CC[C@@](C)(CCC[C@H](C)CCC[C@H](C)CCCC(C)C)O2 = inactive
CCCCCCCCCCCC[n+]1ccc2ccccc2c1 = active
CC(Cc1ccc(O)c(O)c1)C(C)Cc1ccc(O)c(O)c1 (stereo not given) = inactive
CC1=CCC(C(C)(C)O)CC1 (stereo not given) = inactive
COc1ccc2c3c1O[C@H]1C[C@@H](O)C=C[C@@]31CCN(C)C2 = inactive
